# System: DMS 114 tumor spheroids, viability % test/control
# assay.overview: Anticancer human tumor DMS 114 cell line growth inhibition
# experimental.conditions: second compound 0.003 µM; first compound 1 µM; hits give low values; spheroids with HUVEC and MSC
# Procedure: Multicellular complex tumor spheroid response to DNA repair inhibitors in combination with DNA-damaging drugs This study explores the anticancer activities of DNA-damaging drugs and inhibitors of DNA damage repair, both as single agents and in combinations. […] Twenty-six patient-derived or established malignant cell lines were evaluated representing sarcoma, melanoma, small cell lung cancer (SCLC), non-small cell lung cancer (NSCLC), as well as bladder, ovarian and pancreatic cancers. […]
# viability, T/C values compiled below
The answer is to be given in %; state only the numeric part.

Some entries whose results are on file:
COc1cc(C)[nH]c(=O)c1CN1CCc2c(Cl)cc(C(OC)C3COC3)c(Cl)c2C1=O (stereo not drawn) + CC[C@@]1(O)C(=O)OCc2c1cc1n(c2=O)Cc2cc3c(CN(C)C)c(O)ccc3nc2-1
77
CC1COCCN1c1cc(-c2ccnn2C)c2ccnc(-c3ccn[nH]3)c2n1 (stereo not drawn) + COc1cc2c(cc1O)CCNC21CSC2c3c(OC(C)=O)c(C)c4c(c3C(COC1=O)N1C(O)C3Cc5cc(C)c(OC)c(O)c5C(C21)N3C)OCO4
0.15
CC1COCCN1c1cc(-c2ccnn2C)c2ccnc(-c3ccn[nH]3)c2n1 (stereo not drawn) + CC[C@@]1(O)C(=O)OCc2c1cc1n(c2=O)Cc2cc3c(CN(C)C)c(O)ccc3nc2-1
11.9
Cc1cc(C)c(CNC(=O)c2cc(-c3ccc(CN4CCOCC4)cc3)cc3c2cnn3C2CCCC2)c(=O)[nH]1 + CC[C@@]1(O)C(=O)OCc2c1cc1n(c2=O)Cc2cc3c(CN(C)C)c(O)ccc3nc2-1
106
COc1ccc([C@@H](O)c2cc(-c3ncnc4cc(N5CCOCC5)ccc34)c(F)cc2Cl)nn1 + CC[C@@]1(O)C(=O)OCc2c1cc1n(c2=O)Cc2cc3c(CN(C)C)c(O)ccc3nc2-1
106

QUERY: Answer briefly: viability, T/C recorded on DMS 114 tumor spheroids, viability % test/control for Cc1cc(C)c(CNC(=O)c2cc(-c3ccc(CN4CCOCC4)cc3)cc3c2cnn3C2CCCC2)c(=O)[nH]1 + COc1cc2c(cc1O)CCNC21CSC2c3c(OC(C)=O)c(C)c4c(c3C(COC1=O)N1C(O)C3Cc5cc(C)c(OC)c(O)c5C(C21)N3C)OCO4
RESULT: 0.44

QUERY: Answer briefly: viability, T/C recorded on DMS 114 tumor spheroids, viability % test/control for COc1cc(C)[nH]c(=O)c1CN1CCc2c(Cl)cc(C(OC)C3COC3)c(Cl)c2C1=O (stereo not drawn) + COc1cc2c(cc1O)CCNC21CSC2c3c(OC(C)=O)c(C)c4c(c3C(COC1=O)N1C(O)C3Cc5cc(C)c(OC)c(O)c5C(C21)N3C)OCO4
RESULT: 0.24

QUERY: Answer briefly: viability, T/C recorded on DMS 114 tumor spheroids, viability % test/control for CC(C)n1c(=O)n(C)c2cnc3cc(F)c(-c4ccc(OCCCN5CCCCC5)nc4)cc3c21 + CC[C@@]1(O)C(=O)OCc2c1cc1n(c2=O)Cc2cc3c(CN(C)C)c(O)ccc3nc2-1
RESULT: 61.1

###

# viability, T/C values compiled below
# System: DMS 114 tumor spheroids, viability % test/control
# assay.overview: Anticancer human tumor DMS 114 cell line growth inhibition;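 further: luminescence used as a proxy for viable cells; spheroids exposed to compounds for 7 days before read-out; 100% = DMSO vehicle control viability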
# experimental.conditions: second compound 3.16 µM; first compound 3 µM; hits give low values; spheroids with HUVEC and MSC
The answer is to be given in %; state only the numeric part.

Some entries whose results are on file:
Cc1sc2c(c1C)C(c1ccc(Cl)cc1)=NC(CC(=O)Nc1ccc(O)cc1)c1nnc(C)n1-2 (centres undefined) + Cn1nnc2c(C(N)=O)ncn2c1=O
6.68
CNCc1ccc(-c2cc(-c3nc(-c4ccc(S(=O)(=O)C(C)C)cc4)cnc3N)on2)cc1 + Cn1nnc2c(C(N)=O)ncn2c1=O
0.24
Cn1ncnc1[C@H]1c2n[nH]c(=O)c3cc(F)cc(c23)N[C@@H]1c1ccc(F)cc1 + Cn1nnc2c(C(N)=O)ncn2c1=O
14

// next item, viability, T/C requested
QUERY: Assign viability, T/C to the following record: O=C(c1cc(Cc2n[nH]c(=O)c3ccccc23)ccc1F)N1CCN(C(=O)C2CC2)CC1 + Cn1nnc2c(C(N)=O)ncn2c1=O
RESULT: 102

###

# Test system: DMS 114 tumor spheroids, viability % test/control
# assay.overview: Anticancer human tumor DMS 114 cell line growth inhibition; active means viability on the fitted dose curve at most 10% of control; inactive means the rest;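 further: luminescence used as a proxy for viable cells; spheroids exposed to compounds for 7 days before read-out; 100% = DMSO vehicle control viability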
# experimental.conditions: second compound 0.003 µM; first compound 0.03 µM; spheroids with HUVEC and MSC
# Method: Multicellular complex tumor spheroid response to DNA repair inhibitors in combination with DNA-damaging drugs This study explores the anticancer activities of DNA-damaging drugs and inhibitors of DNA damage repair, both as single agents and in combinations. […] Twenty-six patient-derived or established malignant cell lines were evaluated representing sarcoma, melanoma, small cell lung cancer (SCLC), non-small cell lung cancer (NSCLC), as well as bladder, ovarian and pancreatic cancers. […]
Select the correct class. Options are active, inactive and nothing else.

Check out these entries, answers already filled in.
Cc1sc2c(c1C)C(c1ccc(Cl)cc1)=NC(CC(=O)Nc1ccc(O)cc1)c1nnc(C)n1-2 (stereo unspecified) + COc1cc2c(cc1O)CCNC21CSC2c3c(OC(C)=O)c(C)c4c(c3C(COC1=O)N1C(O)C3Cc5cc(C)c(OC)c(O)c5C(C21)N3C)OCO4
active
Cn1ncnc1[C@H]1c2n[nH]c(=O)c3cc(F)cc(c23)N[C@@H]1c1ccc(F)cc1 + COc1cc2c(cc1O)CCNC21CSC2c3c(OC(C)=O)c(C)c4c(c3C(COC1=O)N1C(O)C3Cc5cc(C)c(OC)c(O)c5C(C21)N3C)OCO4
active
CNCc1ccc(-c2cc(-c3nc(-c4ccc(S(=O)(=O)C(C)C)cc4)cnc3N)on2)cc1 + COc1cc2c(cc1O)CCNC21CSC2c3c(OC(C)=O)c(C)c4c(c3C(COC1=O)N1C(O)C3Cc5cc(C)c(OC)c(O)c5C(C21)N3C)OCO4
active

QUERY: Which outcome was entered for the compound Cn1ncnc1[C@H]1c2n[nH]c(=O)c3cc(F)cc(c23)N[C@@H]1c1ccc(F)cc1 + CC[C@@]1(O)C(=O)OCc2c1cc1n(c2=O)Cc2cc3c(CN(C)C)c(O)ccc3nc2-1 in this test?
RESULT: inactive

QUERY: Which outcome was entered for the compound Cc1sc2c(c1C)C(c1ccc(Cl)cc1)=NC(CC(=O)Nc1ccc(O)cc1)c1nnc(C)n1-2 (stereo unspecified) + CC[C@@]1(O)C(=O)OCc2c1cc1n(c2=O)Cc2cc3c(CN(C)C)c(O)ccc3nc2-1 in this test?
RESULT: inactive

QUERY: Which outcome was entered for the compound CNCc1ccc(-c2cc(-c3nc(-c4ccc(S(=O)(=O)C(C)C)cc4)cnc3N)on2)cc1 + CC[C@@]1(O)C(=O)OCc2c1cc1n(c2=O)Cc2cc3c(CN(C)C)c(O)ccc3nc2-1 in this test?
RESULT: inactive

###

# Tested on: DMS 114 tumor spheroids, viability % test/control
# assay.overview: Anticancer human tumor DMS 114 cell line growth inhibition;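 further: luminescence used as a proxy for viable cells; spheroids exposed to compounds for 7 days before read-out; 100% = DMSO vehicle control viability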
# experimental.conditions: second compound 0.3 µM; first compound 3 µM; hits give low values; spheroids with HUVEC and MSC
reported.metric: viability, T/C (%)
The answer is to be given in %; state only the numeric part.

CNCc1ccc(-c2cc(-c3nc(-c4ccc(S(=O)(=O)C(C)C)cc4)cnc3N)on2)cc1 + CC[C@@]1(O)C(=O)OCc2c1cc1n(c2=O)Cc2cc3c(CN(C)C)c(O)ccc3nc2-1
0.2

QUERY: Assign viability, T/C to the following record: Cn1ncnc1[C@H]1c2n[nH]c(=O)c3cc(F)cc(c23)N[C@@H]1c1ccc(F)cc1 + CC[C@@]1(O)C(=O)OCc2c1cc1n(c2=O)Cc2cc3c(CN(C)C)c(O)ccc3nc2-1
RESULT: 2.99

QUERY: Assign viability, T/C to the following record: Cc1sc2c(c1C)C(c1ccc(Cl)cc1)=NC(CC(=O)Nc1ccc(O)cc1)c1nnc(C)n1-2 (centres undefined) + CC[C@@]1(O)C(=O)OCc2c1cc1n(c2=O)Cc2cc3c(CN(C)C)c(O)ccc3nc2-1
RESULT: 0.73

QUERY: Assign viability, T/C to the following record: O=C(c1cc(Cc2n[nH]c(=O)c3ccccc23)ccc1F)N1CCN(C(=O)C2CC2)CC1 + CC[C@@]1(O)C(=O)OCc2c1cc1n(c2=O)Cc2cc3c(CN(C)C)c(O)ccc3nc2-1
RESULT: 6.88

###

# Test system: DMS 114 tumor spheroids, viability % test/control
# assay.overview: Anticancer human tumor DMS 114 cell line growth inhibition;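 further: luminescence used as a proxy for viable cells; spheroids exposed to compounds for 7 days before read-out; 100% = DMSO vehicle control viability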
# experimental.conditions: second compound 0.00949 µM; first compound 3.16 µM; hits give low values; spheroids with HUVEC and MSC
# Description: Multicellular complex tumor spheroid response to DNA repair inhibitors in combination with DNA-damaging drugs This study explores the anticancer activities of DNA-damaging drugs and inhibitors of DNA damage repair, both as single agents and in combinations. […] Twenty-six patient-derived or established malignant cell lines were evaluated representing sarcoma, melanoma, small cell lung cancer (SCLC), non-small cell lung cancer (NSCLC), as well as bladder, ovarian and pancreatic cancers. […]
reported.metric: viability, T/C (%)
The answer is to be given in %; state only the numeric part.

Some entries whose results are on file:
COc1cc(C)[nH]c(=O)c1CN1CCc2c(Cl)cc(C(OC)C3COC3)c(Cl)c2C1=O (stereo not drawn) + CC[C@@]1(O)C(=O)OCc2c1cc1n(c2=O)Cc2cc3c(CN(C)C)c(O)ccc3nc2-1
49.3
CC1COCCN1c1cc(-c2ccnn2C)c2ccnc(-c3ccn[nH]3)c2n1 (stereo not drawn) + CC[C@@]1(O)C(=O)OCc2c1cc1n(c2=O)Cc2cc3c(CN(C)C)c(O)ccc3nc2-1
7.71

QUERY: Assign viability, T/C to the following record: COc1ccc([C@@H](O)c2cc(-c3ncnc4cc(N5CCOCC5)ccc34)c(F)cc2Cl)nn1 + CC[C@@]1(O)C(=O)OCc2c1cc1n(c2=O)Cc2cc3c(CN(C)C)c(O)ccc3nc2-1
RESULT: 40.2

Where do these numbers come from? They come from PubChem BioAssay AID1845202.
